Catalogue of pIC50 readings, one per entry.
testedTarget: P-selectin (Homo sapiens)
Construct: P-selectin is isolated from human platelet lysates
Sequence (P16109 42-830): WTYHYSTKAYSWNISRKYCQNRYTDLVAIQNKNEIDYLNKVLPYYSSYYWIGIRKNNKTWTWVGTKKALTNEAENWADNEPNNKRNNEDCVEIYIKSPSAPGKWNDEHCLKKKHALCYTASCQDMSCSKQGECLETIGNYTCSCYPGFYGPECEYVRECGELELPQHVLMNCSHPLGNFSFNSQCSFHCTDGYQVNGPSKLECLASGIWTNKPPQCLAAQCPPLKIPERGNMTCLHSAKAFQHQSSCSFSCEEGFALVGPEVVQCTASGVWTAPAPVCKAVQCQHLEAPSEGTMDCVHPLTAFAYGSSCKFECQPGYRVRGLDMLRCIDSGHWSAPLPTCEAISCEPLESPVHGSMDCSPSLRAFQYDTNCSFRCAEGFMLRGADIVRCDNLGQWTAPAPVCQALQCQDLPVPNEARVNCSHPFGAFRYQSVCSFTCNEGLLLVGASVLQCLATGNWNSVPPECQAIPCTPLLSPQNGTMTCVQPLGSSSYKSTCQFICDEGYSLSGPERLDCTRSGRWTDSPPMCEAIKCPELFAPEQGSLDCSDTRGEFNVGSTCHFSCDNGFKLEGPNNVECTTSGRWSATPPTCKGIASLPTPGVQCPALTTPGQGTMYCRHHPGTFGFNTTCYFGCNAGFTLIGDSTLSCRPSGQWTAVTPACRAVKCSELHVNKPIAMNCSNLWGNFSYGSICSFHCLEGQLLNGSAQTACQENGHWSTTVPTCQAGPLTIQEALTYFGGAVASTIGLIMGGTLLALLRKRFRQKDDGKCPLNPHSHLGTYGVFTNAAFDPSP
assayMethodText: Inhibition of human neutrophil adhesion to purified P-selectin immobilized on plastic wells
setupConditions: inhibiting the binding of human neutrophils to P-selectin
Where a SMILES comes first, the peptide text is derived from it. Bridges are numbered along the chain shown (N, C = ends). [ ]: non-standard residue; d: D form.
Quick note: pIC50 means taking -log10 of the concentration in moles per liter.

CC(C)[C@@H](NC(=O)[C@@H](Cc1c[nH]c2ccccc12)NC(=O)[C@H](NC(=O)[C@@H](Cc1c[nH]c2ccccc12)NC(=O)[C@H]1CSSC[C@@H](NC(=O)[C@@H](CCCCN)NC(=O)[C@H](N)CCCNC(=N)N)C(=O)NCC(=O)N[C@@H](CCC(=O)O)C(=O)N1)[C@H](C)O)C(N)=O [(66)] (H-[dR][dK][dC]GE[dC][dW][dT][dW][dV]-NH2; disulfide 3-6); 3.54
CC(C)[C@@H](NC(=O)[C@@H](Cc1c[nH]c2ccccc12)NC(=O)[C@H](NC(=O)[C@@H](Cc1c[nH]c2ccccc12)NC(=O)[C@H]1CSSC[C@@H](NC(=O)[C@@H](CCCCN)NC(=O)[C@H](N)CCCNC(=N)N)C(=O)N[C@H](CCC(N)=O)C(=O)N[C@@H](CCC(N)=O)C(=O)N1)[C@H](C)O)C(N)=O [(114)] (H-[dR][dK][dC][dQ]Q[dC][dW][dT][dW][dV]-NH2; disulfide 3-6); 4.92
CC(C)[C@@H](NC(=O)[C@@H](Cc1c[nH]c2ccccc12)NC(=O)[C@H](NC(=O)[C@@H](Cc1c[nH]c2ccccc12)NC(=O)[C@H]1CSSC[C@@H](NC(=O)[C@@H](CCCCN)NC(=O)[C@H](N)CCCNC(=N)N)C(=O)NCC(=O)N2CCC[C@@H]2C(=O)N1)[C@H](C)O)C(N)=O [(16)] (H-[dR][dK][dC]G[dP][dC][dW][dT][dW][dV]-NH2; disulfide 3-6); 6.00

Ask | Output measured pIC50 for this item: C[C@@H](O)[C@H](NC(=O)[C@H](Cc1c[nH]c2ccccc12)NC(=O)[C@@H]1CSSC[C@H](NC(=O)[C@H](CCCCN)NC(=O)[C@@H](N)CCCNC(=N)N)C(=O)NCC(=O)NCC(=O)N1)C(=O)N[C@@H](Cc1c[nH]c2ccccc12)C(N)=O [(7)] (H-RKCGGCWTW-NH2; disulfide 3-6)
Reply | 3.21

Ask | Output measured pIC50 for this item: CC[C@H](C)[C@@H]1NC(=O)[C@H](CCCCN)NC(=O)[C@@H](N)CCC(=O)NCCCC[C@@H](C(=O)N[C@@H](Cc2c[nH]c3ccccc23)C(=O)N[C@H](C(=O)N[C@@H](Cc2c[nH]c3ccccc23)C(=O)N[C@H](C(N)=O)C(C)C)[C@@H](C)O)NC(=O)CNC(=O)CNC1=O [Preferred peptide (1)] (H-EKIGGKWTWV-NH2; lactam 1-6)
Reply | 3.94

Ask | Output measured pIC50 for this item: CC(C)[C@@H](NC(=O)[C@@H](Cc1c[nH]c2ccccc12)NC(=O)[C@H](NC(=O)[C@@H](Cc1c[nH]c2ccccc12)NC(=O)[C@H]1CSSC[C@@H](NC(=O)[C@@H](CCCCN)NC(=O)[C@H](N)CCCNC(=N)N)C(=O)NCC(=O)N[C@H](CCCCN)C(=O)N1)[C@H](C)O)C(N)=O [(55)] (H-[dR][dK][dC]G[dK][dC][dW][dT][dW][dV]-NH2; disulfide 3-6)
Reply | 4.22
